# System: U2OS
# experiment-summary: Multiplex assay against U2OS
# Assay type: toxicity, cell-based
# settings: human, 48 h, 1 µM, compound concentration 1 uM, replicate 2
Mark each entry met if its Population Healthy Nuclei (%) sits below 70%, and not met for all others.

# molecule, answer-label
rows = [
    ("CCCCCCNC(=O)Nc1ccc(S(=O)(=O)Nc2ccc(CCNC[C@H](O)COc3ccc(O)cc3)cc2)cc1 [L-755507]", "met"),
    ("COc1c(Nc2ccc(S(C)(=O)=O)nc2C)ncnc1OC1CCN(C(=O)OC(C)C)CC1 [ADP-597]", "met"),
    ("CCC(=O)OCC(=O)[C@@]1(OC(=O)CC)[C@@H](C)C[C@H]2[C@@H]3CCC4=CC(=O)C=C[C@]4(C)[C@@]3(Cl)[C@@H](O)C[C@@]21C [BECLOMETHASONE DIPROPIONATE]", "not met"),
    ("Cc1cc(NC(=O)NCCN2CCC(O)(Cc3ccccc3)CC2)c2ccccc2n1 [PALOSURAN]", "not met"),
    ("CN1CCC(C(=O)c2cccc(NC(=O)c3c(F)cc(F)cc3F)n2)CC1", "met"),
    ("C[C@@H]1CC(=O)Nc2cccc(-c3ccc4c(c3)c(-c3cnn(C)c3)nn4C)c2N1", "not met"),
    ("O=C(O)CCC/C=C\\CC1C(O)CC(O)C1/C=C/C(O)COc1cccc(Cl)c1 (configuration not stated) [CLOPROSTENOL]", "not met"),
    ("OCCCNc1cc(-c2ccnc(Nc3cccc(Cl)c3)n2)ccn1", "met"),
    ("Cc1cc(O)c(-c2ccc([C@@H](C)CN(C)C)cc2)c2c1[nH]c(=O)c1sccc12", "met"),
    ("COCCCN1CCC(NC(=O)c2cc(Cl)c(N)c3c2OCC3)CC1 [PRUCALOPRIDE]", "met"),
    ("CN1C[C@H](C(=O)N[C@]2(C)O[C@@]3(O)[C@@H]4CCCN4C(=O)[C@H](Cc4ccccc4)N3C2=O)C[C@@H]2c3cccc4[nH]cc(c34)C[C@H]21.CS(=O)(=O)O [DIHYDROERGOTAMINE MESYLATE]", "not met"),
    ("Cc1cc(-c2ccc3c(c2)CC[C@H]3N2CC3(CCN(C(=O)Cc4cn5cc(C)sc5n4)CC3)C2)ncn1 [PF-5190457]", "not met"),
]
